# ASSAY SYSTEM: Dual specificity protein phosphatase 3 (Homo sapiens) (UniProt P51452)
# Sequence (P51452 whole entry, looked up): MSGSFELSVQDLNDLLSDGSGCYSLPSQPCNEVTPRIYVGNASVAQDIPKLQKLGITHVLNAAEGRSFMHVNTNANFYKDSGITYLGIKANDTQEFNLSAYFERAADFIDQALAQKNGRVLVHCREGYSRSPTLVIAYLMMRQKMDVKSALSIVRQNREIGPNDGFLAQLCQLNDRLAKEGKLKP
# TEST PROTOCOL: VHR1 phosphatase inhibitors, biochemical (AID 1878)
# CONDITION SET: recombinant VHR phosphatase, fluorogenic substrate; at 13.3 µM; active compounds read high
Among all 1,000 compounds or so, about 200 (20%) were called active. These entries were drawn from the full list. Potency and affinity values are given separately.
MEASUREMENT KIND: inhibition (%)

[
  {
    "MOLECULE": "COc1ccc(N=C2C(=O)Nc3ccc(C)c(Br)c32)cc1",
    "OBSERVED": 7.8
  },
  {
    "MOLECULE": "C/C=C/c1ccc(OCC(O)CNCCc2ccc(OC)cc2)c(OC)c1 (stereo unspecified)",
    "OBSERVED": 11.7
  },
  {
    "MOLECULE": "CCOc1cc(/C=C(/C#N)C(=O)Nc2ccc(OC)cc2)ccc1OCc1ccc(C(=O)O)cc1",
    "OBSERVED": 90.9
  },
  {
    "MOLECULE": "CC1CCN(CCCNC(=O)C2CCN(S(=O)(=O)N3CCC4(CC3)OCCO4)CC2)CC1",
    "OBSERVED": 1.6
  },
  {
    "MOLECULE": "COc1ccccc1N1CCN(C2CCCN(C(=O)CCC(=O)N(C)C)C2)CC1 (stereo unspecified)",
    "OBSERVED": -13.2
  },
  {
    "MOLECULE": "C[C@]12CCC3=C4CCC(=O)C=C4CC[C@H]3C1CC[C@@H]2O (stereo partly specified)",
    "OBSERVED": 14.2
  },
  {
    "MOLECULE": "Cc1nc(C)c(C(=O)Nc2cccc(C)c2C)s1",
    "OBSERVED": 32.5
  },
  {
    "MOLECULE": "COc1ccc(CCC(=O)NNC(=O)Nc2ccc(OC)c(OC)c2)cc1",
    "OBSERVED": 1.3
  },
  {
    "MOLECULE": "O=C(c1ccc(NC2=NC3CS(=O)(=O)CC3S2)cc1)N(CCO)Cc1ccccc1 (stereo unspecified)",
    "OBSERVED": 0.9
  },
  {
    "MOLECULE": "CCOc1ccc(C(=O)Nc2cc3c(cc2N2CCCC2)n(CC)c(=O)n3CC)cc1OCC",
    "OBSERVED": -0.2
  },
  {
    "MOLECULE": "CC(C)OCCCNc1ncnc2c1nc1n2CCCC1",
    "OBSERVED": -2.4
  }
]

* * *

# ASSAY SYSTEM: Dual specificity protein phosphatase 3 (Homo sapiens) (UniProt P51452)
# TEST PROTOCOL: VHR1 phosphatase inhibitors, biochemical (AID 1878)
# CONDITION SET: recombinant VHR phosphatase, fluorogenic substrate; at 13.3 µM; active compounds read high
The whole screen tested about 1,000 compounds, of which about 200 (20%) were called active. Only a sample is shown. Potency and affinity values are given separately.
Items are presented alongside their recorded inhibition.
MEASUREMENT KIND: inhibition

[
  {
    "COMPOUND": "CSc1ccc(NC(=O)N2CCN(c3nc4ccccc4s3)CC2)cc1",
    "MEASUREMENT KIND": "inhibition",
    "OBSERVED": "5% (inactive)"
  },
  {
    "COMPOUND": "N#Cc1ccc(OS(=O)(=O)c2ccc(-c3ccon3)s2)cc1",
    "MEASUREMENT KIND": "inhibition",
    "OBSERVED": "1.6% (inactive)"
  },
  {
    "COMPOUND": "Nc1cc(=O)[nH]c(SCC(=O)Nc2ccc(Oc3ccccc3)cc2)n1",
    "MEASUREMENT KIND": "inhibition",
    "OBSERVED": "-5% (inactive)"
  },
  {
    "COMPOUND": "CCOc1ccc(CNC(=O)C(=O)c2cn(CC(=O)N3CCOCC3)c3ccccc23)cc1OC",
    "MEASUREMENT KIND": "inhibition",
    "OBSERVED": "-5.3% (inactive)"
  },
  {
    "COMPOUND": "CC(C)Cn1c(C23CC4CC(CC(C4)C2)C3)n[nH]c1=S",
    "MEASUREMENT KIND": "inhibition",
    "OBSERVED": "10% (inactive)"
  },
  {
    "COMPOUND": "OC(COC(c1ccc(F)cc1)c1ccc(F)cc1)CN1CCCC(C(F)(F)F)C1 (configuration not stated)",
    "MEASUREMENT KIND": "inhibition",
    "OBSERVED": "-7.4% (inactive)"
  },
  {
    "COMPOUND": "Cc1ccc2oc(C(=O)N3CCN(C)C[C@@H]3C(C)C)c(C)c2c1",
    "MEASUREMENT KIND": "inhibition",
    "OBSERVED": "-13.8% (inactive)"
  },
  {
    "COMPOUND": "COc1ccc(C(=O)N(C)CCCC2CCCC2)cc1OC1CCN(C(C)C)CC1",
    "MEASUREMENT KIND": "inhibition",
    "OBSERVED": "-11.7% (inactive)"
  },
  {
    "COMPOUND": "Cc1csc(NC(=O)CCCC(=O)O)c1-c1nc2ccccc2s1",
    "MEASUREMENT KIND": "inhibition",
    "OBSERVED": "98.8% (active)"
  },
  {
    "COMPOUND": "O=C(NC1CC2CCCC(C1)N2)c1ccccc1 (configuration not stated)",
    "MEASUREMENT KIND": "inhibition",
    "OBSERVED": "-12.1% (inactive)"
  },
  {
    "COMPOUND": "Cc1ccc(N2CCN(c3ncccc3[N+](=O)[O-])CC2)c(C)c1",
    "MEASUREMENT KIND": "inhibition",
    "OBSERVED": "8.1% (inactive)"
  },
  {
    "COMPOUND": "COc1ccc(N(C(=O)CNC(=O)c2ccco2)C(C(=O)NC2CCCCC2)c2ccncc2)cc1 (configuration not stated)",
    "MEASUREMENT KIND": "inhibition",
    "OBSERVED": "-11% (inactive)"
  },
  {
    "COMPOUND": "COc1ccc(C(=O)N2CCCCCCC2)cc1OC1CCN(C(C)C)CC1",
    "MEASUREMENT KIND": "inhibition",
    "OBSERVED": "-3.1% (inactive)"
  },
  {
    "COMPOUND": "COC(=O)C1=NN(C(=O)c2ccccc2)C(O)(c2ccc([N+](=O)[O-])cc2)C1 (configuration not stated)",
    "MEASUREMENT KIND": "inhibition",
    "OBSERVED": "-7.4% (inactive)"
  },
  {
    "COMPOUND": "Cc1sc2ncn(CC(=O)N3CCCC(C)C3)c(=O)c2c1S(=O)(=O)N1CCCCC1 (configuration not stated)",
    "MEASUREMENT KIND": "inhibition",
    "OBSERVED": "7.1% (inactive)"
  },
  {
    "COMPOUND": "Cc1ccc2nc(NC(=O)CCCc3nc4ccccc4s3)sc2c1",
    "MEASUREMENT KIND": "inhibition",
    "OBSERVED": "-0.6% (inactive)"
  },
  {
    "COMPOUND": "Cn1c(=O)oc2cc(S(=O)(=O)N3CCCC(C(=O)NCc4ccc5c(c4)OCO5)C3)ccc21 (configuration not stated)",
    "MEASUREMENT KIND": "inhibition",
    "OBSERVED": "9.1% (inactive)"
  },
  {
    "COMPOUND": "CCn1cc(C(=O)N2CCCC(N3CCN(c4cccc(C(F)(F)F)c4)CC3)C2)cn1 (configuration not stated)",
    "MEASUREMENT KIND": "inhibition",
    "OBSERVED": "-9% (inactive)"
  },
  {
    "COMPOUND": "Cc1cc(C)c(S(=O)(=O)NCC2CCC(C(=O)NCCCN3CCC(C)CC3)CC2)c(C)c1 (configuration not stated)",
    "MEASUREMENT KIND": "inhibition",
    "OBSERVED": "-3.9% (inactive)"
  },
  {
    "COMPOUND": "Clc1ccc(Cl)c(OCCCCN2CCCCC2)c1",
    "MEASUREMENT KIND": "inhibition",
    "OBSERVED": "-4.8% (inactive)"
  },
  {
    "COMPOUND": "CC(C)(C)OC(=O)NCC1CCN(S(=O)(=O)Cc2ccccc2)CC1",
    "MEASUREMENT KIND": "inhibition",
    "OBSERVED": "-7.1% (inactive)"
  },
  {
    "COMPOUND": "Cc1ccc2[nH]c(CN3CCN(C)C(CCO)C3)c(C)c2c1 (configuration not stated)",
    "MEASUREMENT KIND": "inhibition",
    "OBSERVED": "-2.5% (inactive)"
  }
]
